# Method Summary: cells
# Measurement Conditions: Rattus norvegicus, Rat1, 1 h
Readout Label: IC50 (nM)

Compound	IC50 / nM
C[C@H]1COC(=O)N1c1nc(-c2cnc(N)cc2C(F)(F)F)cc(N2CCOCC2)n1	1760
Nc1cc(C(F)(F)F)c(-c2cc(N3CCOC(c4ccccc4)C3)nc(N3CCOCC3)n2)cn1 (racemic)	2770
Nc1ncc(-c2cc(N3CCOCC3)nc(N3CCOCC3)n2)c(C(F)(F)F)n1	191

I = Nc1ncc(-c2cc(N3CCOCC3)nc(N3CCOCC3)n2)c(=O)[nH]1
II = COc1ccc2c(c1)OCCN2c1cc(-c2cnc(N)nc2)nc(N2CCOCC2)n1
III = Nc1cc(C(F)(F)F)c(-c2cc(N3CCS(=O)(=O)CC3)nc(N3CCOCC3)n2)cn1
IN: # rank_down: sort by IC50, max first Your task in answering is to list the labels in the requested order.
OUT: III, I, II

---

# Method Summary: Clast in athymic nude mouse xenografted with rat Rat1 cells expressing myr-p110alpha at 3 mg/kg, po measured after 8 days by LC-MS/MS analysis
# Type: ADME, organism-based
# Measurement Conditions: in vivo, time 8 day, read-out: Clast
Readout Label: concentration at 192 h (nM)
Field format: number, assumed nM, no unit text.

IN: Give its concentration at 192 h value. Item: `C[C@H]1OC(=O)N(c2nc(-c3cnc(N)nc3C(F)(F)F)cc(N3CCOCC3)n2)[C@H]1CO`
OUT: 3

---

# Measured Target: Phosphatidylinositol 4,5-bisphosphate 3-kinase catalytic subunit delta isoform (Homo sapiens)
# Sequence (O00329 whole entry, canonical isoform): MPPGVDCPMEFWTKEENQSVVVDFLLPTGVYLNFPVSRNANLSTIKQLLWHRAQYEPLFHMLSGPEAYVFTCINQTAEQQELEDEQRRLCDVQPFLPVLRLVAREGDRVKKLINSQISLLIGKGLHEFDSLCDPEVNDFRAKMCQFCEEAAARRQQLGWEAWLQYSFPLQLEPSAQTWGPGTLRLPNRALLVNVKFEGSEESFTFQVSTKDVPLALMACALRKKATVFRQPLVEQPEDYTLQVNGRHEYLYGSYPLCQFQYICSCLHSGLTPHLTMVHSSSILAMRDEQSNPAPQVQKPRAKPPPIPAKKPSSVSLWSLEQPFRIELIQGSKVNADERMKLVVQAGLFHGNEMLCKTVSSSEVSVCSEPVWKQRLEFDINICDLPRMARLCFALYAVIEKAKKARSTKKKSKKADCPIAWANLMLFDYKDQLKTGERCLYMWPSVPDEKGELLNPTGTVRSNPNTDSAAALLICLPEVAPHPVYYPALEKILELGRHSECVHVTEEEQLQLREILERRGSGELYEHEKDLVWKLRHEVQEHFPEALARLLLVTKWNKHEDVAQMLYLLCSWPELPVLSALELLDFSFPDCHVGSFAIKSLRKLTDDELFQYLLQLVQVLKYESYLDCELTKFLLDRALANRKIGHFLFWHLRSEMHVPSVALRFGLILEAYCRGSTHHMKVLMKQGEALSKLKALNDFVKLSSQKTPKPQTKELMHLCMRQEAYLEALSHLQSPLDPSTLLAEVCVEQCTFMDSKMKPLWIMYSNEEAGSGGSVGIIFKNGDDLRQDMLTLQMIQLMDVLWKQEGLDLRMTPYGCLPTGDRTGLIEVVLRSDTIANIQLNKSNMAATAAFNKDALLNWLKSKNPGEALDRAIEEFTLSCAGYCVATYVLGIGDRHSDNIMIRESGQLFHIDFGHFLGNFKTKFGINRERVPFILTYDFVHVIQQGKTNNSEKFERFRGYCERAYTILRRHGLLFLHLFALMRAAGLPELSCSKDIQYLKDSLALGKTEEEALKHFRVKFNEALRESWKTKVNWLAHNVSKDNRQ
# Method Summary: Inhibition of PI3Kdelta (unknown origin) using phosphatidylinositol as substrate measured for 15 to 60 mins by TR-FRET based Adapta universal kinase assay
Readout Label: IC50 (nM)
Answer in nM, number only, no unit symbol.

IN: Which IC50 reading was recorded for the compound `C[C@H]1OC(=O)N(c2nc(-c3cnc(N)nc3C(F)(F)F)cc(N3CCOCC3)n2)[C@H]1CO` ?
OUT: 8.3

---

# Method Summary: Stability in mouse liver microsomes assessed as hepatic extraction preincubated for 3 mins followed by NADPH addition and measured after 60 mins
# Format: ADME, Microsome
# Measurement Conditions: time 63 min, read-out: ERH
Readout Label: hepatic extraction ratio at 1 h

Structure String	hepatic extraction ratio at 1 h
C[C@H]1COC(=O)N1c1nc(-c2cnc(N)nc2C(F)(F)F)cc(N2CCOCC2)n1	0.27
C[C@H]1OC(=O)N(c2nc(-c3cnc(N)nc3C(F)(F)F)cc(N3CCOCC3)n2)[C@H]1CO	0.34

---

# Method Summary: Apparent permeability across apical to basolateral side in human Caco-2 cells at 10 uM measured after 120 mins by LC-MS/MS analysis
# Assay type: ADME, cell-based
Readout Label: Papp A→B at 2 h, 10 µM (×10⁻⁶ cm/s)
Value expressed in ×10⁻⁶ cm/s; do not type the unit.

IN: For the molecule `C[C@H]1OC(=O)N(c2nc(-c3cnc(N)nc3C(F)(F)F)cc(N3CCOCC3)n2)[C@H]1CO` , what Papp A→B at 2 h, 10 µM is on record?
OUT: 8.9

---

# Method Summary: Cmax in athymic nude mouse xenografted with rat Rat1 cells expressing myr-p110alpha at 3 mg/kg, po measured after 8 days by LC-MS/MS analysis
# Format: ADME, organism-based
# Parameters: time 8 day, dose 3 mg/kg, route po
# Measurement Conditions: in vivo
Readout Label: Cmax (nM)
Express it in nM; write the number only.

IN: // Cmax lookup, key: `C[C@H]1OC(=O)N(c2nc(-c3cnc(N)nc3C(F)(F)F)cc(N3CCOCC3)n2)[C@H]1CO`
OUT: 1480

---

# Measured Target: Serine/threonine-protein kinase mTOR (Homo sapiens)
# Method Summary: Displacement of Alexa Fluor labelled Tracer-314 from human N-terminal GST-tagged mTOR incubated for 1 hr by TR-FRET assay
pIC50: −log10 of the molar value.
Readout Label: pIC50

Sample answers from the record:
Structure String	Measured Target	pIC50
Nc1ncc(-c2cc(N3CCOCC3)nc(N3C(=O)OC[C@@H]3CO)n2)c(C(F)(F)F)n1	Serine/threonine-protein kinase mTOR (Homo sapiens)	5.41
C[C@H]1[C@@H](CO)OC(=O)N1c1nc(-c2cnc(N)nc2C(F)(F)F)cc(N2CCOCC2)n1	Serine/threonine-protein kinase mTOR (Homo sapiens)	5.77
C[C@H]1COC(=O)N1c1nc(-c2cnc(N)nc2C(F)(F)F)cc(N2CCOCC2)n1	Serine/threonine-protein kinase mTOR (Homo sapiens)	5.54
Nc1cc(C(F)(F)F)c(-c2cc(N3CCOC3=O)nc(N3CCOCC3)n2)cn1	Serine/threonine-protein kinase mTOR (Homo sapiens)	5.17

a = Nc1cc(C(F)(F)F)c(-c2cc(N3CCCCC3=O)nc(N3CCOCC3)n2)cn1
b = Nc1ncc(-c2cc(N3CCOCC3)nc(N3C[C@H](CO)OC3=O)n2)c(C(F)(F)F)n1
IN: # min-compare on pIC50 between a and b Answer format: the label of the selected item.
OUT: a
(a: 5.30, b: 5.66)

---

# Method Summary: In vivo Inhibition of AKT phosphorylation at Ser473 residue in plasma of athymic nude mouse xenografted with rat Rat1 cells expressing myr-p110alpha
# Assay type: functional, organism-based
# Measurement Conditions: Mus musculus
Readout Label: IC50 (nM)
Use nM as the unit, but write only the number.

IN: Fill in the blank: the reported IC50 of `C[C@H]1OC(=O)N(c2nc(-c3cnc(N)nc3C(F)(F)F)cc(N3CCOCC3)n2)[C@H]1CO` is ____.
OUT: 200

---

# Method Summary: Brain to blood ratio in OF1 mouse at 1 mg/kg, iv measured at 5 mins post dose by LC-MS/MS analysis
# Assay type: ADME, organism-based
# Measurement Conditions: brain and blood, read-out: BBR
Readout Label: Kp at 5 min

1 = N#Cc1cc(N)ncc1-c1cc(N2CCOC(CCO)C2)nc(N2CCOCC2)n1 (racemic)
2 = Nc1cc(C(F)(F)F)c(-c2cc(N3CCOC(c4ccccc4)C3)nc(N3CCOCC3)n2)cn1 (racemic)
3 = CNC(=O)N(C)c1cc(-c2cnc(N)cc2C(F)(F)F)nc(N2CCOCC2)n1
IN: Descending sort on Kp at 5 min required. To answer, write out the labels according to the requested order.
OUT: 2, 3, 1
(2: 4.89, 3: 1.1, 1: 0.2)

P = C[C@H]1COC(=O)N1c1nc(-c2cnc(N)nc2C(F)(F)F)cc(N2CCOCC2)n1
Q = C[C@H]1OC(=O)N(c2nc(-c3cnc(N)nc3C(F)(F)F)cc(N3CCOCC3)n2)[C@H]1CO
IN: Which has the smaller recorded Kp at 5 min, P or Q ? To answer, give the label that identifies your chosen option.
OUT: Q
(Q: 0.02, P: 1.11)

---

# Method Summary: Apparent permeability in human Caco-2 cells assessed as Km by Michaelis-Menten based analysis
# Assay type: ADME, cell-based
# Measurement Conditions: read-out: Km(app)
Readout Label: Km

IN: Would you mind telling me what Km value was observed for `C[C@H]1OC(=O)N(c2nc(-c3cnc(N)nc3C(F)(F)F)cc(N3CCOCC3)n2)[C@H]1CO` ?
OUT: > 30 µM

---

# Method Summary: Minimal apparent permeability across apical to basolateral side in human Caco-2 cells at 0.25 to 30 uM measured after 120 mins by LC-MS/MS analysis
# Type: ADME, cell-based
# Measurement Conditions: dose 0.25-30 µM
Readout Label: Papp A→B at 2 h, up to 30 µM (×10⁻⁶ cm/s)
Give just the number in ×10⁻⁶ cm/s; leave the unit off.

IN: Which Papp A→B at 2 h, up to 30 µM is listed for `C[C@H]1OC(=O)N(c2nc(-c3cnc(N)nc3C(F)(F)F)cc(N3CCOCC3)n2)[C@H]1CO` ?
OUT: 2.5

---

# Method Summary: Aqueous solubility of compound in buffer at pH 6.8 by HPLC analysis
# Type: physicochemical
Readout Label: solubility (µM)
Output spec: scalar in µM, unitless text.

IN: Please look up its solubility: `C[C@H]1OC(=O)N(c2nc(-c3cnc(N)nc3C(F)(F)F)cc(N3CCOCC3)n2)[C@H]1CO`
OUT: 29

---

# Method Summary: Drug concentration in OF1 mouse blood at 1 mg/kg, iv measured at 1 hr post dose by LC-MS/MS analysis
# Assay type: ADME, organism-based
# Measurement Conditions: whole blood, read-out: Ct
Readout Label: concentration at 1 h (nM)

Structure String	concentration at 1 h [nM]
C[C@H]1OC(=O)N(c2nc(-c3cnc(N)nc3C(F)(F)F)cc(N3CCOCC3)n2)[C@H]1CO	630
C[C@H]1COC(=O)N1c1nc(-c2cnc(N)nc2C(F)(F)F)cc(N2CCOCC2)n1	616

---

# Method Summary: Oral bioavailability in OF1 mouse plasma at 10 mg/kg measured upto 24 hrs by LC-MS/MS analysis
# Type: ADME, organism-based
Readout Label: bioavailability (%)
Give your result in % as a bare value.

IN: Form field: reported bioavailability of `C[C@H]1OC(=O)N(c2nc(-c3cnc(N)nc3C(F)(F)F)cc(N3CCOCC3)n2)[C@H]1CO`
OUT: 49
